src = patent US20120283184A1

# target: T1, human vascular endothelial growth factor receptor-2 Fc chimera (KDR-Fc) (human, UniProt P35968 20-764)
# T1 construct: range 1-764; Purchased from R&D Systems; also called hKDR; human VEGF-R2-Fc; not shown: human IgG1 Fc
# T1 sequence (P35968 20-764 limits assumed, change not shown, form in doubt): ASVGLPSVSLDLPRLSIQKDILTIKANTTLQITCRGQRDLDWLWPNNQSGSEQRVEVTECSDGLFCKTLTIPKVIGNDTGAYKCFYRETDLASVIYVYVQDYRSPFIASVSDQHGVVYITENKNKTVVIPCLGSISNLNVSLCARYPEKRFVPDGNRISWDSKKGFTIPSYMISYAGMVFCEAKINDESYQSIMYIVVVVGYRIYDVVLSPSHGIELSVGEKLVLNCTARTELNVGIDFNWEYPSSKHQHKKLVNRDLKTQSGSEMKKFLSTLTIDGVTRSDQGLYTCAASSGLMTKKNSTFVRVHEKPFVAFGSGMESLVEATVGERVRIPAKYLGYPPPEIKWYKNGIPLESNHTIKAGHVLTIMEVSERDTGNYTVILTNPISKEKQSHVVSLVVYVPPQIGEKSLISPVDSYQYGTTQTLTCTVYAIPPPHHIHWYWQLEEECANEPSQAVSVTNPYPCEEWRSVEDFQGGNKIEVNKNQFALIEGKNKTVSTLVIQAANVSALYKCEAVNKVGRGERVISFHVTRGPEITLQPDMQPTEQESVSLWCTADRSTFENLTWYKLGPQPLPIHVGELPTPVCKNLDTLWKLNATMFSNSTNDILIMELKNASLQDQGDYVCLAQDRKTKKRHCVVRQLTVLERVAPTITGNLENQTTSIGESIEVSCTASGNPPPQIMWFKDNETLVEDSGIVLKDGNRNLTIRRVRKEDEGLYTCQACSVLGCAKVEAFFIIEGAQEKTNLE
# assayNotes: radioactive equilibrium binding, 1 nM KDR-Fc
readoutLabel: Binding to 1 nM KDR, % (%)

{"binder": "1′DelD3 PR4 (designed binder, in vitro translated) EVVAATPTSLLISWRHPHFPTRYYRITYGETGGNSPVQEFTVPLQPPTATISGLKPGVDYTITVYAVTLAQNNHELITPISINYRT", "Binding to 1 nM KDR, % (%)": 12}
{"binder": "1′DelC6 PR4 (designed binder, in vitro translated) EVVAATPTSLLISWRHPHFPTRYYRITYGETGGNSPVQEFTVPLQPPTATISGLKPGVDYTITVYAVTVAQNEHELLTPISINYRT", "Binding to 1 nM KDR, % (%)": 12}
{"binder": "3H9 PR3 (designed binder, in vitro translated) EVVAATPTSLLISWRHPHFPTRYYRITYGETGGNSPVQEFTVPLQPPTATISGLKPGVDYTITVYAVTVSQQNHELLTPISINYRT", "Binding to 1 nM KDR, % (%)": 11}
{"binder": "3E6 PR3 (designed binder, in vitro translated) EVVAATPTSLLISWRHPHFPTRYYRITYGETGGNSPVQEFTVPLQPPTATISGLKPGVDYTITVYAVTVPQNGHELITMISINYRT", "Binding to 1 nM KDR, % (%)": 12}
{"binder": "1′DelB10 PR4 (designed binder, in vitro translated) EVVAATPTSLLISWRHPHFPTRYYRITYGETGGNSPVQEFTVPLQPPTATISGLKPGVDYTITVYAVTVARNDHELMTPISINYRT", "Binding to 1 nM KDR, % (%)": 11}
